Molecular target: human CCR6 (Homo sapiens)
Sequence (P51684 whole entry): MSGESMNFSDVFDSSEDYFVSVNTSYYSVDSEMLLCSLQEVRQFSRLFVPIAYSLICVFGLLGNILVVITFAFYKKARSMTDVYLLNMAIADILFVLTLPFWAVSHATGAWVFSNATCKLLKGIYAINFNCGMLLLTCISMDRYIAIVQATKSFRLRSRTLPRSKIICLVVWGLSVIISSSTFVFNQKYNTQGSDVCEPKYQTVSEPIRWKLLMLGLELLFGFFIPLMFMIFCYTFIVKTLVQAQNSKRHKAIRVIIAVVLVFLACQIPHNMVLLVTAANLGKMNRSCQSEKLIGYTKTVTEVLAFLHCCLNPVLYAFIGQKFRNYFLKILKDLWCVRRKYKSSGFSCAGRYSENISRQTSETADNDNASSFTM
Experiment: Human CCR6-CRE reporter assay
Format: cell-based
Design: The second construct contained the open reading frame of human CCR6 in the pUNO1 backbone; host or cells: 293FT cells
Details: relative -Log IC50; 293FT cells transfected with human CCR6 and CRE-luciferase reporter; 6 μM Forskolin, 6 nM CCL20; 5 h
Assay endpoint: IC50 (nM)
Field: numeric (nM). Do not append units.

Determine reported IC50 for "O=S(=O)(c1ccc(-c2ccc3nnc(C(F)F)n3c2)cc1)[C@H]1CC[C@H](Nc2ccc(S(F)(F)(F)(F)F)cc2)CC1" ; test system: human CCR6 (Homo sapiens).
126

Determine reported IC50 for "O=C1NCCc2cc(-c3ccc(S(=O)(=O)[C@H]4CC[C@H](Nc5ccc(S(F)(F)(F)(F)F)cc5)CC4)cc3)ccc21" ; test system: human CCR6 (Homo sapiens).
126

Determine reported IC50 for "CC(C)c1cnc2ccc(-c3ccc(S(=O)(=O)N4CCC(Nc5ccc(S(F)(F)(F)(F)F)cc5)CC4)cc3)cn12" ; test system: human CCR6 (Homo sapiens).
39.8

Where do the numbers come from? From patent US20260070902A1.
